# Target: T1, GALNTL4 (peptide code GALNTL4-001) peptide on HLA-A*02:01 (human)
# T1 peptide: KLTEYVDKV
# Assay text: cytokine release
Experimental readout: binding result

1) R26P1A9 (TCR, V domains shown) Valpha: SQQGEEDPQALSIQEGENATMNCSYKTSINNLQWYRQNSGRGLVHLILIRSNEREKHSGRLRVTLDTSKKSSSLLITASRAADTASYFCLIGASGSRLTFGEGTQLTVNP Vbeta: DAGVIQSPRHEVTEMGQEVTLRCKPISGHDYLFWYRQTMMRGLELLIYFNNNVPIDDSGMPEDRFSAKMPNASFSTLKIQPSEPRDSAVYFCASSYFGWNEKLFFGSGTQLSVL: no recognition
2) R42P3A9 (TCR, V domains shown) Valpha: GIQVEQSPPDLILQEGANSTLRCNFSDSVNNLQWFHQNPWGQLINLFYIPSGTKQNGRLSATTVATERYSLLYISSSQTTDSGVYFCAVHNFNKFYFGSGTKLNVKP Vbeta: AAGVIQSPRHLIKEKRETATLKCYPIPRHDTVYWYQQGPGQDPQFLISFYEKMQSDKGSIPDRFSAQQFSDYHSELNMSSLELGDSALYFCASSLLGQGYNEQFFGPGTRLTVL: no recognition
3) R26P2A6 (TCR, V domains shown) Valpha: QKEVEQDPGPLSVPEGAIVSLNCTYSNSAFQYFMWYRQYSRKGPELLMYTYSSGNKEDGRFTAQVDKSSKYISLFIRDSQPSDSATYLCAMSDVSGGYNKLIFGAGTRLAVHP Vbeta: EAQVTQNPRYLITVTGKKLTVTCSQNMNHEYMSWYRQDPGLGLRQIYYSMNVEVTDKGDVPEGYKVSRKEKRNFPLILESPSPNQTSLYFCASTTPDGTDEQFFGPGTRLTVL: no recognition
